Just for reference, ChEMBL document CHEMBL1143798 is where these values come from.

molecules and their reported pIC50
system: MDA-MB-231; assay: Cytotoxicity against human MDA-MB-231 cells by MTT assay; format: functional, cell-based
Here pIC50 is given on a logarithmic scale as minus log10 of the concentration in mol/L.

COc1cccc2c1C(=O)c1c(O)c3c(c(O)c1C2=O)C[C@@](O)(C(=O)CO)C[C@@H]3O[C@H]1C[C@H](N)[C@H](O)[C@H](C)O1 [DOXORUBICIN] = 7.52
Nn1c(-c2ccc(Cl)cc2)nc2c(-c3ccc(Br)cc3)nc3ccc(Cl)cc3c2c1=O = 5.54

# input Query (molecule): Nn1c(-c2ccc(Cl)cc2)nc2c(-c3ccc(Cl)cc3)nc3ccccc3c2c1=O ; field requested: pIC50
# output 4.26

# input Would you mind doing Nn1c(-c2ccccc2)nc2c(-c3ccc(Br)cc3)nc3ccc(Cl)cc3c2c1=O as well?
# output 4.86

# input Would you mind doing Nn1c(-c2ccc(Cl)cc2)nc2c(-c3ccc(Cl)cc3)nc3ccc(Cl)cc3c2c1=O as well?
# output 5.74

# input Would you mind doing Nn1c(-c2ccccc2)nc2c(-c3ccc(Cl)cc3)nc3ccc(Cl)cc3c2c1=O as well?
# output 4.80

# input Would you mind doing Nn1c(-c2ccc(Cl)cc2)nc2c(-c3ccc(Br)cc3)nc3ccccc3c2c1=O as well?
# output 4.47
